meta.source: paper PMC5605238

# assayTarget: T1, Hrq1 (Saccharomyces cerevisiae, UniProt Q05549 1-1077)
# T1 sequence: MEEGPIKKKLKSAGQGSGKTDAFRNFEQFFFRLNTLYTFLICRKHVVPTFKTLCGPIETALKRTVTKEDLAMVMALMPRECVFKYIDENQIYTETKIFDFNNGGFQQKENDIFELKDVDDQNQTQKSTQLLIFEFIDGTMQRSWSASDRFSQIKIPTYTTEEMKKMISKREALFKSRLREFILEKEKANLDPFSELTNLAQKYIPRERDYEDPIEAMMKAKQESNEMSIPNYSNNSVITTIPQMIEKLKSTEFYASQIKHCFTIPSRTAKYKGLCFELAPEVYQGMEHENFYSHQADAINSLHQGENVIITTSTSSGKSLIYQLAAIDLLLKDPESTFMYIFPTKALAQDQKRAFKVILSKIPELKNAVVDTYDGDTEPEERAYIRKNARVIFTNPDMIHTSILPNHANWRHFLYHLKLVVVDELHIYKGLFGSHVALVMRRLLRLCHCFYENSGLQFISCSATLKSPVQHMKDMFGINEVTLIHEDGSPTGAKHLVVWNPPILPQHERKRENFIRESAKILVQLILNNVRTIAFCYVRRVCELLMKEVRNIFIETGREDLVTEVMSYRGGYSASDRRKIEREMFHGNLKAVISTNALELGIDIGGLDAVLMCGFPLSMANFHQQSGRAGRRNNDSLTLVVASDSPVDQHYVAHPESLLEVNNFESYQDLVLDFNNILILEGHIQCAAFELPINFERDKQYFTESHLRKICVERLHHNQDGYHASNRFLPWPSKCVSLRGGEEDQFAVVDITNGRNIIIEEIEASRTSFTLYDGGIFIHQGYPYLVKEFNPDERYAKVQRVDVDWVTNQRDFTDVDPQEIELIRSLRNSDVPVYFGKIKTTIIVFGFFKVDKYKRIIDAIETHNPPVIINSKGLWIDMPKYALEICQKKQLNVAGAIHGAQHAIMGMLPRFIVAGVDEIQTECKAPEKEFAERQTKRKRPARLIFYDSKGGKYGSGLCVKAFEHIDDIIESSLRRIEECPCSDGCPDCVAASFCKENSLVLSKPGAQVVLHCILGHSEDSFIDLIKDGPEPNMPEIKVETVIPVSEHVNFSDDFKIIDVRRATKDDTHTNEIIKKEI
# procedureDetails: EMSA
assayMetric: pKd
Keep in mind that pKd stands for -log10 of concentration in molar terms.

Holliday junction (HJ) (structured_DNA) DNA 1: GACGCTGCCGAATTCTGGCTTGCTAGGACATCTTTGCCCACGTTGACCC DNA 2: TGGGTCAACGTGGGCAAAGATGTCCTAGCAATGTAATCGTCTATGACGTT DNA 3: CAACGTCATAGACGATTACATTGCTAGGACATGCTGTCTAGAGACTATCGA DNA 4: ATCGATAGTCTCTAGACAGCATGTCCTAGCAAGCCAGAATTCGGCAGCGT    7.10

# context switch: different binder, same pKd
Problem: Requested read-out: pKd. Entry: TTTTTTTTTTTTTTTTTTTTTTTTTTTTTTTTTTTTTTTT (ssDNA) [Poly(dT) 40mer ssDNA]
Result: 8.46
